pIC50: −log10 of the molar value.
Target or system Ribosomal protein S6 kinase beta-1 (Homo sapiens); metric pIC50; compiled from varied reports.
The label depends only on pIC50: met if it is at least 8, not met if it is smaller.

* COc1cc2ncc3c(N)nc(-c4cncc(O[C@H]5CCNC5)c4)cc3c2cc1OC | not met
* COc1cccc([C@@H](C)Nc2ncc3cc(-c4ncnc5[nH]ncc45)ccc3n2)c1 | not met
* COc1cc2ncc3c(N)nc(-c4cncc(OC[C@H](N)Cc5ccccc5)c4)cc3c2cc1OC | not met
* C[C@@H](Nc1ncc2cc(-c3ncnc4[nH]ncc34)ccc2n1)c1cccc(Cl)c1 | not met
* CC1(C)C(=O)Nc2ncnc(N3CCC(c4nc(-c5nnc(C(F)F)o5)ccc4NCCN4CCCC4)CC3)c21 | met

Decide: pIC50 of CC1C(=O)Nc2ncnc(N3CCC(c4nc(-c5cncc(F)c5)ccc4NCCN4CCCC4)CC3)c21 (centres unmarked) >= 8?
met

Next record, please: `COc1cc2ncc3c(N)nc(-c4cncc(O[C@H]5CCCNC5)c4)cc3c2cc1OC`
not met

* * *

Literature-derived pIC50 for Ribosomal protein S6 kinase beta-1 (Homo sapiens) follows.
// scale note: pIC50 = -log10(conc_M); give the bare number

Below, 3 compounds whose answers are already recorded.
- CC(C)(C)NCCNc1ccc(-c2cnn(C(F)F)c2)nc1C1CCN(c2ncnc3c2C(C)(C)C(=O)N3)CC1: 9.40
- COc1cc2ncc3c(N)nc(-c4cncn4C)cc3c2cc1OC: 5.89
- C[C@@H](Nc1ncc2cc(-c3ncnc4[nH]ncc34)ccc2n1)c1ccc(F)c(F)c1: 8.00

We next turn to a different compound, shown below.
Tell me the measured pIC50 of `COc1cc2ncc3c(N)nc(-c4cncc(O[C@@H]5CCNC5)c4)cc3c2cc1OC` , please.
6.45

* * *

Please find below IC50 data on Ribosomal protein S6 kinase beta-1 (Homo sapiens, UniProt P23443) compiled from the literature.
# strict inequality: IC50 < 0.02 µM yields fulfilled, everything else yields not fulfilled

- COc1cncc(-c2ccc(NCCNC(C)C)c(C3CCN(c4ncnc5c4C(C)C(=O)N5)CC3)n2)c1 (centres unmarked): fulfilled
- Nc1nc(-c2cncc(OC[C@@H](N)Cc3ccccc3)c2)cc2c1cnc1ccccc12: not fulfilled
- c1ccc(CN(C[C@@H]2COCCN2)c2ncc3cc(-c4ncnc5[nH]ncc45)ccc3n2)cc1: not fulfilled
- COc1cc2c(cc1OCCCN1CCCC1)ncc1c(N)nc(-c3cccnc3)cc12: not fulfilled
- COc1cc2ncc3c(N)nc(-c4cncc(OC[C@@H](N)Cc5ccc(NC(=O)OCc6ccccc6)cc5)c4)cc3c2cc1OC: not fulfilled
- COc1cc2ncc3c(N)nc(-c4cncc(OC[C@H](C)N)c4)cc3c2cc1OC: not fulfilled
- Cc1cccc([C@@H](C)Nc2cnc3cc(-c4cn[nH]c4)ccc3n2)c1: fulfilled
- COc1cc2c(cc1OCCCCl)ncc1c(N)nc(-n3ccnc3)cc12: not fulfilled
- C[C@H](Nc1ncc2cc(-c3ncnc4[nH]ncc34)ccc2n1)c1ccccc1: not fulfilled
- C[C@H](c1ccccc1)N(C)c1cnc2cc(-c3cn[nH]c3)ccc2n1: fulfilled

Below 0.02 µM on IC50? Entry CC1C(=O)Nc2ncnc(N3CCC(c4nc(-c5cccnc5F)ccc4NCCN4CCCC4)CC3)c21 (centres unmarked)
fulfilled

Same again, this time with `CC1(C)C(=O)Nc2ncnc(N3CCC(c4nc(-c5ccc(F)nc5)ccc4NCCN4CCCC4)CC3)c21`
fulfilled

Param item: `COc1cc2c(cc1O)ncc1c(N)nc(-n3ccnc3)cc12`
not fulfilled

Field entry: `CN(Cc1ccccc1)c1nc2ccc(-c3cn[nH]c3)cc2[n+]([O-])n1`
not fulfilled

Check `CC(=O)Nc1ccc(C(=O)Nc2sc(Nc3ccccc3)nc2C(N)=O)cc1` too.
not fulfilled

Same lookup for `CC1(C)C(=O)Nc2ncnc(N3CCC(c4nc(-c5nnc(C(F)(F)F)o5)ccc4NC[C@@H]4CCCN4)CC3)c21` , please.
fulfilled

* * *

Record: compiled IC50 on Ribosomal protein S6 kinase beta-1 (Homo sapiens) from multiple reports.
The reply should be a number in nM, with the unit left off.

Use these answered entries as a reference point.
• CC(C)NCCNc1ccc(-c2cnc(F)c(F)c2)nc1C1CCN(c2ncnc3c2C(C)(C)C(=O)N3)CC1 = 0.3
• COc1cccc([C@@H](C)N(C)c2cnc3cc(-c4cn[nH]c4)ccc3n2)c1 = 9
• COc1cc2ncc3c(N)nc(-c4cncc(OC[C@@H](C)N)c4)cc3c2cc1OC = 97
• COc1cc(-c2ccc(NCCN3CCCC3)c(C3CCN(c4ncnc5c4C(C)C(=O)N5)CC3)n2)c(F)cn1 (centres unmarked) = 0.7
• OC[C@@H](Nc1ncc2cc(-c3ncnc4[nH]ncc34)ccc2n1)c1ccccc1 = 24
• CC(C)NCCNc1ccc(-c2nnc(C(F)F)s2)nc1C1CCN(c2ncnc3c2C(C)(C)C(=O)N3)CC1 = 0.3
• CC(C)(C)NCCNc1ccc(-c2noc(C(F)F)n2)nc1C1CCN(c2ncnc3c2C(C)(C)C(=O)N3)CC1 = 0.3
• COc1cc2c(cc1OCCCl)ncc1c(N)nc(-n3ccnc3)cc12 = 1560

// fetch Ribosomal protein S6 kinase beta-1 (Homo sapiens) IC50 for `CC(C)(C)NCCNc1ccc(-c2nc(C(F)(F)F)no2)nc1C1CCN(c2ncnc3c2C(C)(C)C(=O)N3)CC1`
0.4

Subsequent entry: `Cc1n[nH]c2ncnc(-c3ccc4nc(N[C@H](C)c5ccccc5)ncc4c3)c12`
131
